# Protocol details: acute toxicity assay in mice
# Type: in vivo, mouse
# Assay setup: mouse, in vivo, iv, mice
# From the text: Of particular interest in this respect are the compounds of formula I above. The hydrochlorides of these compounds afford up to more than 15% aqueous solutions. […] In addition, the compounds of formula I are extremely non-toxic.
Recorded endpoint: LD50

LD50 reading for COc1cc2nc(N3CCN(C(=O)C(C)OC)CC3)nc(N)c2cc1OC (stereo not shown) : 360 mg/kg
